Tested on: MCF7
Assay: Antiproliferative activity against human MCF7 cells by MTT assay
Format: functional, cell-based
Overview of recorded IC50 for various compounds
Number only, in nM; omit the unit.

Example cases with answers are listed next.
CCc1c(C(=O)NCCc2ccc(N3CCCCC3)cc2)[nH]c2ccc(Br)cc12: 93
CCc1c(C(=O)NCCc2ccc(N(C)C)cc2)[nH]c2ccc(Br)cc12: 112
CCc1c(C(=O)NCCc2ccccc2)[nH]c2ccc(C)cc12: 69
CCc1c(C(=O)N2CCN(c3ccccc3)CC2)[nH]c2ccc(Br)cc12: 190
CCc1c(C(=O)N2CCN(c3ccccc3)CC2)[nH]c2ccc(C)cc12: 132

Ask | Could you tell me which IC50 is on file for CCc1c(C(=O)NCCc2ccc(N3CCCC3C)cc2)[nH]c2ccc(Br)cc12 (stereo not given) ?
Reply | 185

Ask | Name the reported IC50 value associated with the compound CCc1c(C(=O)N2CCN(c3ccccc3)CC2)[nH]c2ccc(C(F)(F)F)cc12
Reply | 123

Ask | Name the recorded IC50 for CCc1c(C(=O)NCCc2ccc(N3CCOCC3)cc2)[nH]c2ccc(C(F)(F)F)cc12 .
Reply | 45

Ask | What does the record list as IC50 for CCc1c(C(=O)NCCc2ccc(N3CCOCC3)cc2)[nH]c2ccc(C)cc12 ?
Reply | 42

Ask | Would you kindly share the measured IC50 for CCc1c(C(=O)NCCc2ccc(N3CCOCC3)cc2)[nH]c2ccc(Br)cc12 ?
Reply | 74

---

System: MCF7
Assay: Antiproliferative activity against human MCF7 cells by MTT assay
Assay type: functional, cell-based
measuredAttribute: IC50 (nM)
Respond with the bare value in nM.

Field: example entries. Status: answers known.
CCc1c(C(=O)NCCc2ccccc2)[nH]c2ccc(Br)cc12: 142
CCc1c(C(=O)NCCc2ccc(N3CCCCC3)cc2)[nH]c2ccc(C(F)(F)F)cc12: 82
CCc1c(C(=O)NCCc2ccccc2)[nH]c2ccc(C(F)(F)F)cc12: 162

Now let's try a different one.
Ask | Using the record for CCc1c(C(=O)NCCc2ccc(N3CCCCC3)cc2)[nH]c2ccc(C)cc12 , report its IC50.
Reply | 54

---

Biological target: UniProt P00533
Sequence (P00533 whole entry): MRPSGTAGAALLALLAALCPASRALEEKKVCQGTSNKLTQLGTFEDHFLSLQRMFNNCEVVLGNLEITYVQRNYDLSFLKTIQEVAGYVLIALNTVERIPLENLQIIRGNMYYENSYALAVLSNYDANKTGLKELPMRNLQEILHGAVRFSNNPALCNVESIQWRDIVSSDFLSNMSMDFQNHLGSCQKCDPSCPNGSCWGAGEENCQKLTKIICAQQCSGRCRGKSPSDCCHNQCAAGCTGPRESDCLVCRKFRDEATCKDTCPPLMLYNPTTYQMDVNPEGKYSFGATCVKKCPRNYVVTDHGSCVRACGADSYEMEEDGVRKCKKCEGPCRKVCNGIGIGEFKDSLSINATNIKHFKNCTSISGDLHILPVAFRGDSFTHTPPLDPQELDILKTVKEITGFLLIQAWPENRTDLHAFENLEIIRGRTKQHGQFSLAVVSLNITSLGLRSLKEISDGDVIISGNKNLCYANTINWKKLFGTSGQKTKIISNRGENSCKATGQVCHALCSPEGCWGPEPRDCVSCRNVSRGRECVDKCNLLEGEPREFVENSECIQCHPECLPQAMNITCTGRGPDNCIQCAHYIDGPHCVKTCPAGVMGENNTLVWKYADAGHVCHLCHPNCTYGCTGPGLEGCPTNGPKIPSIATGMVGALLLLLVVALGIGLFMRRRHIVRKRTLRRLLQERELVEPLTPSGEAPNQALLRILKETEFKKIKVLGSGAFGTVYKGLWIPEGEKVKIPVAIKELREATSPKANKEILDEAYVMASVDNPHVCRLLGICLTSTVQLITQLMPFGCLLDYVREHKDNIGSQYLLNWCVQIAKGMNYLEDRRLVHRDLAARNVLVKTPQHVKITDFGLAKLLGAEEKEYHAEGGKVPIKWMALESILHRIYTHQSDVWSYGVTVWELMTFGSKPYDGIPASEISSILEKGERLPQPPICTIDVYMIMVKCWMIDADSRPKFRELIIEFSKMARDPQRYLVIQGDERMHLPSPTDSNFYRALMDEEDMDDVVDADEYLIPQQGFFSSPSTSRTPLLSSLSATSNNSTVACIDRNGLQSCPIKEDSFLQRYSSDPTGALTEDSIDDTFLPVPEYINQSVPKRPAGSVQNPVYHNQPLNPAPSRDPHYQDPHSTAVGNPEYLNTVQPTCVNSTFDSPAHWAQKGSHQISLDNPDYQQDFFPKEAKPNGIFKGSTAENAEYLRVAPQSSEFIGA
measuredAttribute: pIC50
In simple prose, pIC50 is minus the logarithm base ten of a concentration in moles per litre.

CCc1c(C(=O)NCCc2ccc(N3CCOCC3)cc2)[nH]c2ccc(C(F)(F)F)cc12: 7.03
CCc1c(C(=O)NCCc2ccccc2)[nH]c2ccc(C)cc12: 6.87
CCc1c(C(=O)NCCc2ccc(N3CCCCC3)cc2)[nH]c2ccc(C)cc12: 6.93

Shifting focus to the compound that follows.
Ask | pIC50 for CCc1c(C(=O)NCCc2ccc(N3CCOCC3)cc2)[nH]c2ccc(C)cc12 ?
Reply | 7.07

---

Test system: A549
Assay: Antiproliferative activity against human A549 cells by MTT assay
Assay type: functional, cell-based
measuredAttribute: IC50 (nM)
// units = nM; emit number, no label

Past entries and their recorded results:
CCc1c(C(=O)NCCc2ccccc2)[nH]c2ccc(C)cc12: 64
CCc1c(C(=O)N2CCN(c3ccccc3)CC2)[nH]c2ccc(C(F)(F)F)cc12: 117
CCc1c(C(=O)NCCc2ccc(N3CCCCC3)cc2)[nH]c2ccc(Br)cc12: 89

// moving on: another record for IC50
Ask | Look up IC50: CCc1c(C(=O)NCCc2ccc(N3CCCC3C)cc2)[nH]c2ccc(Br)cc12 (centres undefined)
Reply | 172
